Would you kindly list kon for each of these binders?
ASSAY SYSTEM: T1, cynomolgus monkey (cyno) TSLP (cynomolgus monkey, UniProt A0A7N9CAT7 29-159)
T1 construct: also called cTSLP; cynomolgus TSLP
T1 sequence (A0A7N9CAT7 entry or part of it): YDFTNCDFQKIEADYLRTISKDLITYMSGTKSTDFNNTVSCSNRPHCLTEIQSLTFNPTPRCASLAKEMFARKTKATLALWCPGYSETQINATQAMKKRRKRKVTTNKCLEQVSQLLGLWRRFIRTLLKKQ
MEASUREMENT NOTES: SPR
Answers are plain numbers, in M⁻¹ s⁻¹.

BINDER	kon / M⁻¹ s⁻¹
BDG38.076 (antibody, V domains shown, IgG1) VH: QMQLVESGGGVVQPGRSLRLSCAASGFAFRTYGMHWVRQAPGKGLEWVAVIWDDGSATHYADSVKGRFTITRDNSKNTLNLQMNSLRAEDTAVYYCVRAPQWYLTAEAFDLWGQGTMVTVSS VL: SYVLTQPPSVSVAPGETASITCGGNMIGGYLVHWYQQKPGQAPLLVIYDDVDRPARIPERFSGSNSGNTATLTISRVEAGDEADYYCQVWDHDTNHMVFGGGTKLTVL	7.8e+06
BDG38.094 (antibody, V domains shown, IgG1) VH: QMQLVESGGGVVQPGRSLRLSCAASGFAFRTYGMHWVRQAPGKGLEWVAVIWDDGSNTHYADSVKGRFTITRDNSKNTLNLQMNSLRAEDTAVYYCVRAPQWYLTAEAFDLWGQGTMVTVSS VL: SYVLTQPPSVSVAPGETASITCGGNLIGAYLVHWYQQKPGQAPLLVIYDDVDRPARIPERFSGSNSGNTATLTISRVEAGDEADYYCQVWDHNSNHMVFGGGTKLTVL	1.16e+07

Now for another entry.
Quick one: kon for BDG38.139 (antibody, V domains shown, IgG1) VH: QMQLVESGGGVVQPGRSLRLSCAASGFAFRTYGMHWVRQAPGKGLEWVAVIWDDGSNTHYADSVKGRFTITRDNSKNTLNLQMNSLRAEDTAVYYCVRAPQWYLSAEAFDLWGQGTMVTVSS VL: SYVLTQPPSVSVAPGETATITCGGNMIGAYLVHWYQQKPGQAPLLVIYDDVDRPARIPERFSGSNSGNTATLTISRVEAGDEADYYCQVWDHNSDHMVFGGGTKLTVL ?
6.5e+06
